- Target Entity: hVAChT (Homo sapiens, UniProt Q16572)
- Sequence (Q16572 1-532): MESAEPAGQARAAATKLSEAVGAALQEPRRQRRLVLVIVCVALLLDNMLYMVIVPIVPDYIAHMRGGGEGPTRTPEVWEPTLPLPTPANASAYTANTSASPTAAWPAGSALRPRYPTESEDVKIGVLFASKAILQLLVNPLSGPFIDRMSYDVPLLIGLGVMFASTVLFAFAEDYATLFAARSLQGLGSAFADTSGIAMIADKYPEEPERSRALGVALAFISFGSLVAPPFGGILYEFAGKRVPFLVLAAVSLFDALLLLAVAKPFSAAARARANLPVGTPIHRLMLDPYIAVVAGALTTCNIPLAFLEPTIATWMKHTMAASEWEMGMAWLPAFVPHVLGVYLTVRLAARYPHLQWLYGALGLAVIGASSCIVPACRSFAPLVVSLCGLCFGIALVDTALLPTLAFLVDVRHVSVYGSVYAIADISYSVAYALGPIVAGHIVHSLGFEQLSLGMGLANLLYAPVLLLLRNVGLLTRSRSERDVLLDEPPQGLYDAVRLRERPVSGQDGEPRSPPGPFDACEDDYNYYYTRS
- Assay Procedure: Competitive binding assay with
Readout Type: Ki

Looking for the measured Ki of CC(C)=CCN1CC[C@]2(C)c3cc(O)ccc3C[C@H]1[C@H]2C [(+)-Pentazocine] , can you help?
> 1000 nM
